Field: self-splicing fitness (ln). Provide a value for each of the sequences that follow.
assay: self-splicing fitness, log relative to wild type (ln ratio); higher = more splicing; Tetrahymena group I intron in knt gene, E. coli kanamycin selection, DiMSum; sequences stand for … in CUCUCU…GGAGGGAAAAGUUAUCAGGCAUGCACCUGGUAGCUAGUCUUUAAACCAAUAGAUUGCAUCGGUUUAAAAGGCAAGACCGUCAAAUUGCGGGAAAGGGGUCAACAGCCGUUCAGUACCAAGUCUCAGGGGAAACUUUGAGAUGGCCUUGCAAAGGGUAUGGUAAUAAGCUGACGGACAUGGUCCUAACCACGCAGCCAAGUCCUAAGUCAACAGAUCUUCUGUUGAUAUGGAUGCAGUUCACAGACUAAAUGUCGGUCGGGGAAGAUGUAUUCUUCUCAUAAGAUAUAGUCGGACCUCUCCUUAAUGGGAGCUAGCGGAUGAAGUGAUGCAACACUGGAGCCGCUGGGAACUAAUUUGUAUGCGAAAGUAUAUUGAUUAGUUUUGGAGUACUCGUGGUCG; conditions: 30 °C;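 further: selection with 25 µg/mL kanamycin versus none on LB agar overnight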
Write no unit; give the number alone.

QUERY: What does the data say about its self-splicing fitness (ln)? Entry: AUACAGCAAUAUUACGUAUU
RESULT: -3.18

QUERY: Next sequence up: CUGUAGCAAUAUUACGUCAG
RESULT: -3.53

QUERY: Next sequence up: CGAAAGCAAUAUUACGAAUU
RESULT: -4.27

QUERY: Next sequence up: AACUAGCAAUAUUACGGCAC
RESULT: -0.766

QUERY: Next sequence up: CGUGAGCAAUAUUACGCCUC
RESULT: -2.12

QUERY: Next sequence up: ACUAAGCAAUAUUACGAUUA
RESULT: -0.928

QUERY: Next sequence up: UCUAAGCAAUAUUACGCAAC
RESULT: -3.54

QUERY: Next sequence up: CUGCAGCAAUAUUACGGUAG
RESULT: -3.65

QUERY: Next sequence up: GGCUAGCAAUAUUACGUAUG
RESULT: -2.06

QUERY: Next sequence up: CGAAAGCAAUAUUACGGACG
RESULT: -2.73

QUERY: Next sequence up: GUGUAGCAAUAUUACGAAUU
RESULT: -2.33

QUERY: Next sequence up: GCUAAGCAAUAUUACGUUUA
RESULT: -2.9

QUERY: Next sequence up: CGCCAGCAAUAUUACGACAG
RESULT: -0.00427

QUERY: Next sequence up: CGCAAGCAAUAUUACGGACU
RESULT: -1.39

QUERY: Next sequence up: CCUGAGCAAUAUUACGUCGG
RESULT: -4.36

QUERY: Next sequence up: AUUAAGCAAUAUUACGAAGG
RESULT: -3.82

QUERY: Next sequence up: UUAAAGCAAUAUUACGACAC
RESULT: -1.54

QUERY: Next sequence up: UUCUAGCAAUAUUACGCAUU
RESULT: -1.95

QUERY: Next sequence up: CAACAGCAAUAUUACGAUAG
RESULT: -0.377

QUERY: Next sequence up: AAUUAGCAAUAUUACGCAAG
RESULT: -0.991

QUERY: Next sequence up: ACGGAGCAAUAUUACGGAAU
RESULT: -1.57

QUERY: Next sequence up: AGAUAGCAAUAUUACGCGAA
RESULT: -3.1

QUERY: Next sequence up: CCAAAGCAAUAUUACGGUUC
RESULT: -2.91

QUERY: Next sequence up: UUAUAGCAAUAUUACGACGC
RESULT: -2.63

From: the supplement of paper PMC7877785
